# TARGET SYSTEM: Rap guanine nucleotide exchange factor 3 (Homo sapiens) (UniProt O95398)
# EXPERIMENT SUMMARY: Counterscreen qHTS for agonist of cAMP-regulated guanine nucleotide exchange factor 3 (EPAC1) (AID 1645889); also: nearly all actives have a fitted effect of over 40% in size
# MEASUREMENT CONTEXT: EPAC1 Rap1B-BODIPY-GDP exchange, fluorescence; series mostly up to 154 µM
Records with an inconclusive call do not appear. The source made the active and inactive calls. Calls follow the shape of the dose curve; as a rule, active = well fitted activation curve with a large enough effect; inconclusive = small, poorly fitted or top-dose-only effect, or another doubt; inactive = no such curve, though single readings can be large or run the other way.
MEASURED PROPERTY: activation

1) O=C(CSc1nccn1C1CCCC1)Nc1cc(C(F)(F)F)ccc1Cl	inactive
2) CCc1nc2ccc(C(=O)Nc3ccc(NC(C)=O)cc3)cn2c1N(C)CCC(C)C	inactive
3) CC(=O)N(CCC(c1ccco1)C(C)C)Cc1ccc(OC(C)C)cc1 (stereo unspecified)	inactive
4) Cc1cc(C(=O)N/N=C/c2ccc(O)c([N+](=O)[O-])c2)c(C)n1-c1ccc(F)cc1	inactive
5) Cc1c(C(=O)N2CCN(c3ncccn3)CC2)oc2c(Cl)cccc12	inactive
6) CCn1c(C(=O)N2CCc3ccccc3C2)cc2sccc21	inactive
7) O=C(CSc1nccn1Cc1ccc(Cl)cc1)Nc1ccc2c(c1)OCO2	inactive
8) CC(C)Oc1nc(-c2ccccc2Cl)nc2ccccc12	inactive
9) O=[N+]([O-])c1ccc(NS(=O)(=O)c2ccccc2)c(Cl)c1	inactive
10) Cc1ccc(N(Cc2cccs2)C(=O)c2ccco2)cc1	inactive
11) O=C(C1CCN(S(=O)(=O)N2CCOCC2)CC1)N1CCN(c2ccccc2)CC1	inactive
